Reported relative viability EC50 values follow for various compounds
- Test system: HepG2
- method: relative viability EC50 (midpoint between 100% and the lowest measured viability); higher = less toxic
- conditionDetails: 72 h

compound	relative viability EC50
NS(=O)(=O)OC[C@@H]1C[C@@H](n2ccc3c(N[C@H]4CCc5ccccc54)ncnc32)C[C@@H]1O	0.401 µM
CC(C)(Oc1ccc(Cl)cc1)C(=O)O	> 10 µM
CC(C)(Oc1ccc(Cl)cc1)C(=O)OCCOC(=O)c1cccnc1 [etofibrate]	> 10 µM
CC1(C)CC[C@]2(NC(=O)C(C)(F)F)CC[C@]3(C)[C@H](C(=O)C=C4[C@@]5(C)C=C(C#N)C(=O)C(C)(C)[C@@H]5CC[C@]43C)[C@@H]2C1 [Omaveloxolone (RTA-408)]	0.192 µM
CCc1cccc(CC)c1NC(=O)c1nn(C)c2c1CCc1cnc(Nc3ccc(C(=O)NC4CCN(C)CC4)cc3OC(F)(F)F)nc1-2	3.99 µM
COc1cc(C(C)=O)ccc1OCCCN1CCC(c2noc3cc(F)ccc23)CC1	> 10 µM
CCOCCn1c(C2CCN(CCc3ccc(C(C)(C)C(=O)O)cc3)CC2)nc2ccccc21	> 10 µM
Nc1nc(=O)n([C@@H]2CS[C@H](CO)O2)cc1F	> 10 µM
C1N2CN3CN1CN(C2)C3	> 10 µM
Nc1nc(CC(=O)Nc2ccc(CCNC[C@H](O)c3ccccc3)cc2)cs1	> 10 µM
Nc1n[nH]c2nc3ccccc3nc12	> 10 µM
CC(=O)Nc1ccc(OC[C@](C)(O)C(=O)Nc2ccc([N+](=O)[O-])c(C(F)(F)F)c2)cc1	> 10 µM
O=C(O)/C=C1\CCCc2ccccc2[C@H]1O (racemic)	> 10 µM
CCCCCCCCCCCCCCCC[n+]1ccn(Cc2ccccc2)c1C	0.682 µM
Cc1ccc(F)cc1C(=O)Nc1ccc(C(=O)N2Cc3cccn3Cc3ccccc32)c(Cl)c1	> 10 µM
CC(C)c1ccc(NC(=O)Cn2cnc3c2c(=O)n(C)c(=O)n3C)cc1	> 10 µM
C=CC(=O)N1CCC[C@@H](n2nc(-c3ccc(Oc4ccccc4)cc3)c3c(N)ncnc32)C1	> 10 µM

* * *

- Tested on: Caco-2
- method: cell viability relative to DMSO; higher = less toxic
- conditionDetails: 72 h; 10000 nM
With a cut-off of 90%, any cell viability strictly below it is called class 1; any cell viability meeting it or above is called class 0.

compound	category
C/C=C1\NC(=O)[C@H]2CSSCC/C=C/[C@H](CC(=O)N[C@H](C(C)C)C(=O)N2)OC(=O)[C@H](C(C)C)NC1=O	class 1
C[C@@H](O)[C@H]1C(=O)N2C(C(=O)O)=C(S[C@@H]3CN[C@H](CNS(N)(=O)=O)C3)[C@H](C)[C@H]12	class 0
Cc1cc(NCCO)nc(-c2ccc(Br)cc2)n1	class 0
CCCOc1ccc2[nH]c(NC(=O)OC)nc2c1	class 1
COCCN1CCN(Cc2ccc(-c3n[nH]c4c3C(=O)c3c(NC(=O)NN5CCOCC5)cccc3-4)cc2)CC1	class 1
O=C(NCCN1CCOCC1)c1ccc(Cl)cc1 [moclobemide]	class 0
CC(C)c1ccc(NC(=O)Cn2cnc3c2c(=O)n(C)c(=O)n3C)cc1	class 0
CC(C)(Oc1ccc(Cl)cc1)C(=O)OCCOC(=O)c1cccnc1 [etofibrate]	class 0
CN(C)CCCSc1ccccc1NC(=O)/C=C/c1ccccc1	class 0
CC(C)(C)[C@H]1CC[C@H](CC2=C(O)C(=O)c3ccccc3C2=O)CC1	class 1
Nc1c(CC(=O)O)cccc1C(=O)c1ccccc1	class 0
O=C(CCCCCCC(=O)NO)NO	class 1
CC(=O)OCC1=C(C(=O)O)N2C(=O)[C@@H](NC(=O)CSc3ccncc3)[C@H]2SC1	class 0
OC(c1ccc(-c2ccc(CN3CCN(Cc4ccncc4)CC3)cc2)c(F)c1)(C(F)(F)F)C(F)(F)F	class 1
O=C(O)C(F)(F)C(F)(F)C(F)(F)C(F)(F)C(F)(F)C(F)(F)C(F)(F)F [ammonium-perfluorocaprylate]	class 0
CCCCCCCC/C=C\CCCCCCCC(=O)NCc1ccc(O)c(OC)c1	class 0
Cc1ccc(Cl)cc1N(CC(=O)Nc1c(F)cccc1F)S(C)(=O)=O	class 0
Cc1ccc(F)cc1C(=O)Nc1ccc(C(=O)N2Cc3cccn3Cc3ccccc32)c(Cl)c1	class 0
C#Cc1cccc2c1c(C(=O)c1ccc(Cn3c(C)nc4cnccc43)c(F)c1)cn2C(=O)N(C)C	class 0
CN(CCOc1ccc(C[C@H](Nc2ccccc2C(=O)c2ccccc2)C(=O)O)cc1)c1ccccn1	class 1
Nc1ccc([As](=O)(O)O)cc1	class 0
CCOc1cc2ncc(C#N)c(Nc3ccc(F)c(Cl)c3)c2cc1NC(=O)/C=C/CN(C)C	class 1
CN1CCCN=C1COC(=O)C(O)(c1ccccc1)C1CCCCC1 (configuration not stated)	class 0
CC(C)C[C@H](NC(=O)CNC(=O)c1cc(Cl)ccc1Cl)B(O)O	class 1
Cc1cc(C(C)(C)C)cc(C)c1CC1=NCCN1	class 0
NC[C@@](O)(c1ccc(Cl)cc1)c1ccc(-c2cn[nH]c2)cc1	class 1
CC(=O)OCC(=O)[C@@]12N=C(C)O[C@@H]1C[C@H]1[C@@H]3CCC4=CC(=O)C=C[C@]4(C)[C@H]3[C@@H](O)C[C@@]12C	class 0
Clc1ccc(C2=CCC[C@H]3CC[C@@H]2N3)cn1	class 0
CCOC(=O)c1ncn2c1CN(C)C(=O)c1cc(N=[N+]=[N-])ccc1-2	class 0
C[C@]1(COc2ccc(N3CCC(Oc4ccc(OC(F)(F)F)cc4)CC3)cc2)Cn2cc([N+](=O)[O-])nc2O1	class 0

* * *

- Test system: A549-ACE2
- method: drug-induced phospholipidosis relative to tamoxifen; higher = more phospholipidosis
- conditionDetails: 30 µM; 24 h
assayReadout: drug-induced phospholipidosis

molecule	valueObserved
O=C(NCc1ccccc1)c1csc(Nc2ccncn2)n1	4.97%
CN1C(=O)/C(=C2/C(=O)Nc3ccccc32)c2ccccc21	6.15%
CCN1CCN(Cc2ccc(C(=O)Nc3ccc(C)c(Oc4ccc5c(c4)CC(=O)N5)c3)cc2C(F)(F)F)CC1	89.6%
CCCCCCCCCCC(O)C1C=CC2C(=O)N(c3ccccc3)C(=O)C2N1Nc1ccc([N+](=O)[O-])cc1 (stereo not given)	12.3%
COc1cc2ncnc(Sc3nnc(C)s3)c2cc1OC	44.1%

* * *

- Tested on: Vero E6
- method: cell viability relative to DMSO; higher = less toxic
- conditionDetails: 72 h; 10000 nM

molecule	unitLabel	cell viability
CC1(C)CC[C@]2(NC(=O)C(C)(F)F)CC[C@]3(C)[C@H](C(=O)C=C4[C@@]5(C)C=C(C#N)C(=O)C(C)(C)[C@@H]5CC[C@]43C)[C@@H]2C1 [Omaveloxolone (RTA-408)]	%	-0.1
CCCOc1ccc2[nH]c(NC(=O)OC)nc2c1 [oxibendazole]	%	41.9
Cc1nc(C)c(C)nc1C [chuanxiongzine]	%	105
CCc1c2c(nc3ccc(O)cc13)-c1cc3c(c(=O)n1C2)COC(=O)[C@]3(O)CC [SN-38]	%	9.6
CCOc1cc2ncc(C#N)c(Nc3ccc(F)c(Cl)c3)c2cc1NC(=O)/C=C/CN(C)C [pelitinib]	%	7.9

* * *

- Tested on: HepG2
- method: cell viability relative to DMSO; higher = less toxic
- conditionDetails: 72 h; 10 nM
Reported cell viability values follow for various compounds

compound	cell viability, %
O=C1c2c(O)cccc2C([C@@H]2O[C@H](CO)[C@@H](O)[C@H](O)[C@H]2O)c2cc(CO)cc(O)c21 (some centres undefined)	94.1
CC(C)(Oc1ccc(Cl)cc1)C(=O)OCCOC(=O)c1cccnc1 [etofibrate]	106
CCC(CC)(CC(=O)Nc1cccc(/C=C/c2nc(C3CCC3)cs2)c1)C(=O)O	108
CCCN(C/C=C/I)C1CCc2cccc(O)c2C1 (centres undefined) [8-hydroxy-PIPAT]	105

* * *

Reported drug sensitivity score values follow for various molecules
- Test system: Caco-2
- method: drug sensitivity score (DSS) for viability; higher = more toxic; extreme values may be limits of the assay
- conditionDetails: 72 h

molecule	assayedSystem	drug sensitivity score
CCCOc1ccc(Br)cc1-c1cc(-c2ccc(Cl)cc2)[nH]c1-c1ccncc1	Caco-2	0.2
CCN(CC)CCOC(=O)C1(c2ccc([N+](=O)[O-])cc2)CCCC1 [nitrocaramiphen]	Caco-2	0
CC(C)N(CCNC(=O)CN1CCCC1=O)C(C)C [pramiracetam]	Caco-2	0
C=CC(=O)N1CCC[C@@H](n2nc(-c3ccc(Oc4ccccc4)cc3)c3c(N)ncnc32)C1 [ibrutinib]	Caco-2	0
Cc1ccc(F)cc1C(=O)Nc1ccc(C(=O)N2Cc3cccn3Cc3ccccc32)c(Cl)c1 [lixivaptan]	Caco-2	0
Cc1cc(C(C)(C)C)cc(C)c1CC1=NCCN1 [xylometazoline]	Caco-2	0
COc1cc2ncn(-c3cc(OCc4ccccc4C(F)(F)F)c(C(N)=O)s3)c2cc1OC	Caco-2	4.9
CCC(Cc1c(I)cc(I)c(N)c1I)C(=O)O (stereo not given) [iopanic-acid]	Caco-2	0
Nc1ccncc1 [dalfampridine]	Caco-2	0
NC(=O)C1CCCc2c1[nH]c1ccc(Cl)cc21 (stereo not given) [EX-527]	Caco-2	0
